# Test system: Staphylococcus aureus (ATCC25923)
Field 'label' (enum: yes (1) / no (0)). Set to yes (1) when MIC is strictly under 30 µg/mL; else no (0).

# compound, test.system, assigned.class
measured = [
    ("Cc1cccc(C(CC(=O)NC2CCCCC2)c2cn(CC3CCCCC3)c3ccccc23)c1 (stereo not shown) [Compound 208]", "Staphylococcus aureus (ATCC25923)", "no (0)"),
]

Does this compound meet the criterion MIC < 30 µg/mL? N[C@H]1CC[C@H](NC(=O)C2CCN(Cc3cn(CC4CCCCC4)c4ccc(Br)cc34)CC2)CC1 [Compound 272]
no (0)

Does this compound meet the criterion MIC < 30 µg/mL? Cc1cccc(C(CC(=O)NCCC2CCNCC2)c2cn(CCC3CCCCC3)c3ccccc23)c1.Cl (stereo not shown) [Compound 110]
yes (1)

* * *

List of MIC values.
# System: Staphylococcus aureus (ATCC25923)
Express your answer in µg/mL, writing the number without its unit.

# compound, units.symbol, readout.number
rows = [
    ("Cc1cccc(C(CC(=O)NCCC2CCNCC2)c2cn(CC3CCCCC3)c3ccccc23)c1.Cl (stereo not shown) [Compound 92]", "µg/mL", 16),
    ("Cc1cccc(C(CC(=O)N[C@H]2CC[C@H](N)CC2)c2cn(CC3CC3)c3ccccc23)c1.Cl (stereo partly shown) [Compound 124]", "µg/mL", 128),
    ("Cc1cccc(C(CC(=O)NC2CCC(N)CC2)c2cn(CC3CCCCC3)c3ccc(O)cc23)c1.Cl (stereo not shown) [Compound 165]", "µg/mL", 34),
]

// recorded MIC for Cc1cccc(C(CCNC2CCNCC2)c2cn(CC3CCCCC3)c3ccc(Br)cc23)c1.Cl (stereo not shown) [Compound 163] : 1

// recorded MIC for Cc1cccc(C(CC(=O)N[C@H]2CC[C@H](CN)CC2)c2cn(CC3CCCCC3)c3ccc(Br)cc23)c1.Cl (stereo partly shown) [Compound 206] : 19

// recorded MIC for Cc1cccc(C(CC(=O)N(C)C2CCNCC2)c2cn(CC3CCCCC3)c3ccccc23)c1.Cl (stereo not shown) [Compound 279] : 8

// recorded MIC for Cl.N[C@H]1CC[C@H](NC(=O)CC(c2cc(Cl)cc(Cl)c2)c2cn(CC3CCCCC3)c3ccccc23)CC1 (stereo partly shown) [Compound 136] : 64

* * *

# Tested on: Staphylococcus aureus (ATCC25923)
Structures can show the parent of a compound that is named as a salt.
List of log10(MIC) values.
A value of 2 here means MIC of 100 in µg/mL, since values are log10.

Below are worked cases with known answers.
# molecule, test.system, readout.number
data = [
    ("Cc1cccc(C(CC(=O)N[C@H]2CC[C@H](N)CC2)c2cn(CC3CCCCC3)c3ccc(-c4ccccc4Cl)cc23)c1.Cl (some centres unmarked) [Compound 205]", "Staphylococcus aureus (ATCC25923)", 2.20),
    ("Cc1cccc(C(CC(=O)N[C@H]2CC[C@H](N(C)C)CC2)c2cn(CC3CCCCC3)c3ccccc23)c1.Cl (some centres unmarked) [Compound 146]", "Staphylococcus aureus (ATCC25923)", 0.90),
    ("Cc1cccc(C(CC(=O)Nc2ccc(CN)cc2)c2cn(CC3CCCCC3)c3ccccc23)c1.Cl (centres unmarked) [Compound 139]", "Staphylococcus aureus (ATCC25923)", 0.30),
    ("NC1CCC(NC(=O)CC(c2cccc(OC(F)(F)F)c2)c2cn(CC3CCCCC3)c3ccccc23)CC1 (centres unmarked) [Compound 143, hydrochloride salt]", "Staphylococcus aureus (ATCC25923)", 0.30),
]

Bench note, Staphylococcus aureus (ATCC25923): entry Cc1cccc(C(CC(=O)N2CCC(CCN)CC2)c2cn(CC3CCCCC3)c3ccccc23)c1.Cl (centres unmarked) [Compound 181] , its log10(MIC) = 1.23

Bench note, Staphylococcus aureus (ATCC25923): entry Cc1cccc(C(CC(=O)NCC2CCC(N)CC2)c2cn(CC3CCCCC3)c3ccc(Br)cc23)c1.Cl (centres unmarked) [Compound 214] , its log10(MIC) = 1.00

Bench note, Staphylococcus aureus (ATCC25923): entry Cl.N[C@H]1CC[C@H](NC(=O)CC(c2cccc(C(F)(F)F)c2)c2cn(CC3CCCCC3)c3ccccc23)CC1 (some centres unmarked) [Compound 129] , its log10(MIC) = 0.60

Bench note, Staphylococcus aureus (ATCC25923): entry Cc1cccc(C(CC(=O)NC2CCNCC2)c2cn(CC3CC3)c3ccccc23)c1.Cl (centres unmarked) [Compound 123] , its log10(MIC) = 1.81

Bench note, Staphylococcus aureus (ATCC25923): entry CC(C)C(CC(=O)N[C@H]1CC[C@H](N)CC1)c1cn(CC2CCCCC2)c2ccccc12.Cl (some centres unmarked) [Compound 131] , its log10(MIC) = 1.51

Bench note, Staphylococcus aureus (ATCC25923): entry Cc1cccc(C(CC(=O)NCC2CCC(CN)CC2)c2cn(CC3CCCCC3)c3ccc(Br)cc23)c1.Cl (centres unmarked) [Compound 203] , its log10(MIC) = 0.70

Where do these numbers come from? They come from patent US20210246115A1.
